assay: physchem; conditions: water
measure name: solubility

Record `CCC(CC)COC(=O)[C@H](C)N[P@](=O)(OC[C@H]1O[C@@](C#N)(c2ccc3c(N)ncnn23)[C@H](O)[C@@H]1O)Oc1ccccc1` , field solubility: ~30 µg/mL
